experimental-target: T1, human CD73 on cells (Calu6, NCI-H292, SK-MEL-24, human tumor cell lines, human B and T cells) (human, UniProt P21589 27-549)
T1 sequence: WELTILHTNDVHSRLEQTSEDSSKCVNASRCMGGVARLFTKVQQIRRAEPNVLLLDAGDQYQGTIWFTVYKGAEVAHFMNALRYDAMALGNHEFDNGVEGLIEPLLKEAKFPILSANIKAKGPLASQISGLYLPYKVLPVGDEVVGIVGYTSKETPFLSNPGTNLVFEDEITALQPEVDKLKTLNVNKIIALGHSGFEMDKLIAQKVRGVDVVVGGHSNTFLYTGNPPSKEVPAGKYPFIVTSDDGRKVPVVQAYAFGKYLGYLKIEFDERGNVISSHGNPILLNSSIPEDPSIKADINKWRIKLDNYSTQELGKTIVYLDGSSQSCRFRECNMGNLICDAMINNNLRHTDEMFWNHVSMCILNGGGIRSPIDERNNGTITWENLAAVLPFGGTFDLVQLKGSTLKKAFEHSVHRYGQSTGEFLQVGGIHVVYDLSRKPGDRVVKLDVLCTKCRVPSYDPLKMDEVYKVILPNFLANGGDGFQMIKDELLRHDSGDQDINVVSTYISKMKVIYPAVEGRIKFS
protocol-notes: cell-based or functional assay
I'd appreciate it if you could supply Ymax, CD73 internalization, Calu6, 2 h values for the items below.

For reference, reported Ymax, CD73 internalization, Calu6, 2 h for 10D2 (antibody, human IgG4, kappa, V domains shown, also called 10D2-2) VH: QVQLVESGGGVVQPGRSLRLSCAASGFTFSNYGLHWVRQAPGKGLEWVAVIRYDGSNKYYADSVKGRFTISRDNSKNTLYLQMSSLRAEDTAVYYCARGGSSWYPDGLDVWGQGTTVTVSS VL: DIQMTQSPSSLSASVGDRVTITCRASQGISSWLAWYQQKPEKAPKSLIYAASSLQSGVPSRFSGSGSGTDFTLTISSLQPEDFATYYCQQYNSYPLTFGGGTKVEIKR stands at 29 % of 100 nM 11F11

For reference, reported Ymax, CD73 internalization, Calu6, 2 h for 24H2 (antibody, human IgG4, kappa, V domains shown, also called 24H2-1) VH: QVQLVESGGGVVQPGRSLRLSCAASGFTFSNYGMHWVRQAPGKGLEWVAVIWYDGGNKYYADSVKGRFTISRDNSKNTLFLQMNSLRAEDTAVYYCARGGSSWYPDAFDIWGQGTMVTVSS VL: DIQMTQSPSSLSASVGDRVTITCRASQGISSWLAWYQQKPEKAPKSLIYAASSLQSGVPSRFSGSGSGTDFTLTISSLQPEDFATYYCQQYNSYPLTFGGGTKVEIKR stands at 51 % of 100 nM 11F11

For reference, reported Ymax, CD73 internalization, Calu6, 2 h for 7A11 (antibody, human IgG1, kappa, V domains shown, IgG1za from hybridoma; also called 7A11-1) VH: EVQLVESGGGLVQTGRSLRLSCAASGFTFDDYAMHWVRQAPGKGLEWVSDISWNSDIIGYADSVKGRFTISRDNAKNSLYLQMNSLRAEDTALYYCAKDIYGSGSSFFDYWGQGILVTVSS VL: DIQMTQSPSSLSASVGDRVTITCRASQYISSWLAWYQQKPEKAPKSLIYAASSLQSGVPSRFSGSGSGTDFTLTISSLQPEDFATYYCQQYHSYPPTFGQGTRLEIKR stands at 50 % of 100 nM 11F11

For reference, reported Ymax, CD73 internalization, Calu6, 2 h for 11F11 (antibody, human IgG2, kappa, V domains shown, Human IgG2 from hybridoma) VH: QVQLVESGGGVVQPGRSLRLSCATSGFTFSNYGMHWVRQAPGKGLEWVAVILYDGSNKYYPDSVKGRFTISRDNSKNTLYLQMNSLRAEDTAVYYCARGGSSWYPDSFDIWGQGTMVTVSS VL: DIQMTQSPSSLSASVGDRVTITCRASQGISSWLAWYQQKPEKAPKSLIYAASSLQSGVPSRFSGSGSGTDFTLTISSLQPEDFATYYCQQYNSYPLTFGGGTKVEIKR stands at 98 % of 100 nM 11F11
